Experiment: NCI Yeast Anticancer Drug Screen. Data for the rad50 strain (AID 155);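 further: 0% = growth of vehicle-only cultures of the same strain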
Conditions: S. cerevisiae rad50 strain growth inhibition; at 50.0 µM; stronger effect = higher value
Procedure: Growth inhibition of yeast strains with defined genetic alterations is measured as a screen for potential anti-cancer activity. Selected strains with alterations in DNA damage repair or cell cycle control were exposed to compounds and growth inhibition was measured relative to vehicle treated controls. The strain used in this assay is rad50
About 79,000 compounds went through this panel and 15% of them were active in at least one assay; those are over-represented in the sample as a whole.
Property Measured: growth inhibition (%)
Your answer is read as %, so omit the unit and give the number.

Examples with their reported growth inhibition follow.
molecule="CC(C)=CCS(=O)c1ccccc1NC1=CC(=O)CC(C)(C)C1 (stereo unspecified)" units=% reported=-16.2
molecule=CN(C)c1ccc(/C=C(\NC(=O)c2ccccc2)C(=O)Nc2ccccc2C(=O)NCc2ccccc2)cc1 units=% reported=9.95
molecule=Cc1ccc(-n2cnc3c(=O)[nH]cnc32)cc1N units=% reported=-12.6

For Cn1c(COC(=O)NC2CCCCC2)c(COC(=O)NC2CCCCC2)c2ccc3cc(C=O)ccc3c21 the molecule record lists growth inhibition as 5.95

For CCOc1ccc(/C=C2/NC(=S)N(CN3CCCCC3)C2=O)cc1 the molecule record lists growth inhibition as 5.25

For CN(C)C(=O)C1C2C=CC(CCC2)C1C(=O)N(C)C (stereo unspecified) the molecule record lists growth inhibition as 13.1

* * *

assay: NCI Yeast Anticancer Drug Screen. Data for the rad50 strain (AID 155);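 further: 0% = growth of vehicle-only cultures of the same strain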; details: S. cerevisiae rad50 strain growth inhibition; at 50.0 µM; stronger effect = higher value
Compounds without any hit were thinned out: in the full panel of roughly 79,000, 15% have a hit.
Property Measured: growth inhibition (%)
Your answer is read as %, so omit the unit and give the number.

Examples with their reported growth inhibition follow.
compound="Cc1nc(N)c2c(n1)C(Cc1ccccc1)N(C(=O)c1ccccc1)C2 (configuration not stated)" reported=-5.6
compound=Cc1ccc(C)c(NC(=O)Nc2ccc(Nc3ccccc3)cc2)c1 reported=-6.3
compound=CN(C)CCC(CCN(C)C)=NOC(=O)c1ccccc1 reported=-5.45
compound="COC1CC(NC(=O)C(F)(F)F)C(O)C(CNC(=O)C(F)(F)F)O1 (configuration not stated)" reported=-32.5
compound=C=CC(C)(C)/C=C/C=O reported=-18.8
compound="CC1=NNC(=O)C2CCC(=O)N12 (configuration not stated)" reported=14.8

For COc1ccc(Cc2cc(N=NC(N)=O)c(C)cc2O)cc1 the compound record lists growth inhibition as -7.35

For O=[N+]([O-])c1ccc(OC(=S)N2CCOCC2)cc1 the compound record lists growth inhibition as -7.05

* * *

The entries below are paired with their reported growth inhibition.
Test: NCI Yeast Anticancer Drug Screen. Data for the rad50 strain (AID 155);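 further: 0% = growth of vehicle-only cultures of the same strain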
Conditions: S. cerevisiae rad50 strain growth inhibition; at 50.0 µM; stronger effect = higher value
Description: Growth inhibition of yeast strains with defined genetic alterations is measured as a screen for potential anti-cancer activity. Selected strains with alterations in DNA damage repair or cell cycle control were exposed to compounds and growth inhibition was measured relative to vehicle treated controls. The strain used in this assay is rad50
About 79,000 compounds went through this panel and 15% of them were active in at least one assay; those are over-represented in the sample as a whole.
Your answer is read as %, so omit the unit and give the number.

molecule=Cc1nn2c(-c3ccccc3)cnnc2c1-c1ccccc1 property_measured="growth inhibition" reported=-19.4
molecule="CCC(O)C(C)(C)N (configuration not stated)" property_measured="growth inhibition" reported=13.4
molecule=O=Cc1cccs1 property_measured="growth inhibition" reported=23
molecule="CC(O)C1NC(=S)N(c2ccccc2)C1=O (configuration not stated)" property_measured="growth inhibition" reported=17.4
molecule=CCCC[n+]1cccc(C(N)=O)c1 property_measured="growth inhibition" reported=-3.55
molecule="C[N+](C)(C)C1C2(CCCCC2)NC(=O)C12CCCCC2 (configuration not stated)" property_measured="growth inhibition" reported=5.6
molecule=Oc1ccccc1C1SCSCS1 property_measured="growth inhibition" reported=14.8
molecule="COC(=O)C(CC(=O)Nc1ccc(C)cc1)C(=O)C(=O)Nc1c(C(C)C)cccc1C(C)C (configuration not stated)" property_measured="growth inhibition" reported=-43.4

For O=C(Nc1ccc(CCc2ccc(NC(=O)C34CC5CC(CC(C5)C3)C4)cc2)cc1)C12CC3CC(CC(C3)C1)C2 the molecule record lists growth inhibition as -9.65

For COc1ccc2c(O)cc(C(=O)O)c(-c3ccccc3)c2c1 the molecule record lists growth inhibition as -4.7

For CN1CCN(C2CCCc3ccccc3C2=O)CC1 (configuration not stated) the molecule record lists growth inhibition as 21.9

For O=C(NC1CC/C=C(/c2ccccc2)CC(Cl)C1)c1ccccc1 (configuration not stated) the molecule record lists growth inhibition as 7.85
